Reference source: patent US20230357384A1

- system name: T1, FLRT3 (antigen of the binning assay of Table 2) (Homo sapiens (Human), UniProt Q9NZU0 29-528, limits assumed)
- T1 construct: the whole entry for FLRT3 is named
- T1 sequence: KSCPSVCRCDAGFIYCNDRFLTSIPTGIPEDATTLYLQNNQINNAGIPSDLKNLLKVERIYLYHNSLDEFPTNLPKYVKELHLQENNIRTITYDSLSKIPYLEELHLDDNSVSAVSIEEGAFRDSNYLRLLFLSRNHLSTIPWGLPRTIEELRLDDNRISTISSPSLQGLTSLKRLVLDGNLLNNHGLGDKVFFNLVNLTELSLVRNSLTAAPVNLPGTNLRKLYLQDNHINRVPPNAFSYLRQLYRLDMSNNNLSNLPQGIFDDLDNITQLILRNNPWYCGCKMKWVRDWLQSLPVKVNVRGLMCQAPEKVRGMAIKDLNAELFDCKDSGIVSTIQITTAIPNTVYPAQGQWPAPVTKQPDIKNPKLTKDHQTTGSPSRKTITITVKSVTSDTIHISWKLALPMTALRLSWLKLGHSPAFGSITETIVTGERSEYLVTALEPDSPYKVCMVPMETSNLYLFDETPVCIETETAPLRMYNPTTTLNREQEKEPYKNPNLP
- measurement description: antibody binning matrix (Table 2); competitor: 1H5
measurement type: binning response (no name or unit printed)

QUERY: # get_value(readout='binning response (no name or unit printed)', item= 14B7 (antibody, V domains shown, Variable domains only; also called FLRT3 mAb 14B7; antibody 14B7) VH: QVQLQQSGPELVKPGASVNISCKASGYAFGNSWMNWVKQRPGKGLEWIGWIYPGDGNANYNGKFKGKATLTADKSSSTAYMQLSSLTSEDSAVYFCARALYDYDGWFAYWGQGTLVTVSA VL: DIQMNQSPSSLSASLGDTITIACRASQNIDIWLSWYQQKPGSIPKLLIYKASNLHTGVPSRFSGSGSGTDFTLTISSLQPEDIATYYCLQGQSFPFTFGSGTKLEIK )
RESULT: 0.671
